From: PubChem BioAssay AID1745850

Experiment: Viability Counterscreen for Confirmatory qHTS for Inhibitors of ATXN expression; note: nearly all actives have a fitted effect of over 50% in size
Details: HEK-293 ATXN2-luc cells viability, CellTiter-Fluor, 24 h
Out of some 2,100 compounds screened, about 260 (12%) were called active. Inconclusive results (about 58%) are left out. Calls come from the whole dose curve; as a rule, active = well fitted cell-killing curve with a large enough effect; inconclusive = small, poorly fitted or top-dose-only effect, or effect the other way; inactive = flat fitted curve, though single readings scatter. The list shows a part of the results.
Lab note: assign the record to one of 1 = active, 0 = inactive

Compound	Discrete Label
CN1C/C(=C/c2cccnc2)C(=O)/C(=C/c2cccnc2)C1	0

Ask: Dear colleague, could you share the recorded outcome for Cc1nc(N2CCN(Cc3ccc4c(c3)OCO4)CC2)c2oc3ccccc3c2n1 when you have a moment?
Reply: 0

Ask: Dear colleague, could you share the recorded outcome for Nc1c(C(=O)NCc2ccccc2)c2nc3ccccc3nc2n1-c1ccc2c(c1)OCO2 when you have a moment?
Reply: 0

Ask: Dear colleague, could you share the recorded outcome for Cn1nnnc1Sc1ncnc2scc(Br)c12 when you have a moment?
Reply: 1

Ask: Dear colleague, could you share the recorded outcome for O=C(c1cccc(Cl)c1)c1nn(-c2ccccc2)c(=O)cc1C(F)(F)F when you have a moment?
Reply: 1

Ask: Dear colleague, could you share the recorded outcome for Cn1nnnc1Sc1ncnc2scc(-c3ccc[nH]3)c12 when you have a moment?
Reply: 1

Ask: Dear colleague, could you share the recorded outcome for Nc1ccc2c(c1)OC1(CCCC1)O2 when you have a moment?
Reply: 0

Ask: Dear colleague, could you share the recorded outcome for O=C1/C(=C/c2ccncc2)CCC/C1=C\c1ccncc1 when you have a moment?
Reply: 1

Ask: Dear colleague, could you share the recorded outcome for Cc1cc(Cl)ccc1-c1cc2nc(NCCCN(C)C)n(C)c(=O)c2s1 when you have a moment?
Reply: 0

Ask: Dear colleague, could you share the recorded outcome for Cc1nc2ncnn2c(N2CCN(c3cccc(C(F)(F)F)c3)CC2)c1C when you have a moment?
Reply: 0

Ask: Dear colleague, could you share the recorded outcome for CC(=O)Oc1ccc(C23c4ccccc4C2(OC(C)=O)c2cc(OC(C)=O)ccc23)cc1 (stereo not drawn) when you have a moment?
Reply: 1

Ask: Dear colleague, could you share the recorded outcome for [O-][n+]1c2ccccc2cc2ccccc21 when you have a moment?
Reply: 0

Ask: Dear colleague, could you share the recorded outcome for Cc1ccc(NC(=O)C2CCN(S(=O)(=O)c3ccc(N4CCCC4=O)cc3)CC2)cc1Cl when you have a moment?
Reply: 0
